- Test system: WPMY1-TUBA1B-RELA
- Procedure text: lowest phenotypically active concentration; higher = less potent
- Details: treatment time: 24 h
Property name: lowest phenotypically active concentration (µM)
Quick note: give the figure in µM, leave out the unit.

Lookup: What lowest phenotypically active concentration value was documented for this compound, "O=C(c1cccc(Cl)c1F)N1CCN(Cc2cccc(Nc3nccs3)n2)CC1" ?
Found: 1

Lookup: Data request, read-out lowest phenotypically active concentration, for CNCCCC12CCC(c3ccccc31)c1ccccc12 [maprotiline]
Found: 9

Lookup: // lookup lowest phenotypically active concentration for "C[C@@H](CN1CCC(n2c(=O)[nH]c3cc(Cl)ccc32)CC1)NC(=O)c1ccc2ccccc2c1"
Found: 9

Lookup: Any idea what lowest phenotypically active concentration was measured for OCc1cc(C(O)CNCCCCCCOCCCCc2ccccc2)ccc1O (stereo not drawn) [salmeterol] ?
Found: 9

Lookup: What does the record list as lowest phenotypically active concentration for "Cc1cc(/N=N/c2ccc(S(=O)(=O)Nc3ccccn3)cc2)c(N)cc1O" ?
Found: 9

---

- System: A549-TP53BP1-CLTA
- Procedure text: lowest phenotypically active concentration; higher = less potent
- Details: treatment time: 24 h
Counter-ions that a name gives are not always drawn.
Property name: lowest phenotypically active concentration (µM)
Lab book: enter the figure in µM, no units written.

Lookup: Reported lowest phenotypically active concentration for N#CC[C@@H](C1CCCC1)n1cc(-c2ncnc3[nH]ccc23)cn1 [ruxolitinib-(S)] : what is it?
Found: 9

Lookup: Please give the measured lowest phenotypically active concentration for this compound: "CC[C@@H](N)CNc1ccnc(-c2cc(-c3cnn(C)c3)ccc2O)n1"
Found: 1

Lookup: Would you mind telling me what lowest phenotypically active concentration value was observed for CC(C)c1cnn2c(NCc3ccccc3)cc(NCCCCCCN)nc12 [BS 181 dihydrochloride] ?
Found: 9

Lookup: Suppose we examine the compound "Nc1nc(S)c2[nH]cnc2n1" ; what lowest phenotypically active concentration value has been reported?
Found: 9

Lookup: Item "O=c1c(-c2ccc(O)cc2)coc2cc(O[C@@H]3O[C@H](CO)[C@@H](O)[C@H](O)[C@H]3O)cc(O)c12" has what recorded lowest phenotypically active concentration?
Found: 9

Lookup: Consider the compound "COc1cc(Br)c(Nc2nc(-c3c(C)nc4ncccn34)cs2)c(Br)c1" and give its measured lowest phenotypically active concentration.
Found: 1

Lookup: For "Cc1cc2c(F)c(Oc3ncnn4cc(OC[C@@H](C)O)c(C)c34)ccc2[nH]1" , what is its reported lowest phenotypically active concentration?
Found: 9

Lookup: What value of measured lowest phenotypically active concentration is listed for "O=C(OC12CC3CC(CC(C3)C1)C2)c1ccc(NCc2cc(O)ccc2O)cc1" ?
Found: 9

Lookup: For the compound "O=C(c1cccc(Cl)c1F)N1CCN(Cc2cccc(Nc3nccs3)n2)CC1" , what lowest phenotypically active concentration is on record?
Found: 1

Lookup: Request the reported lowest phenotypically active concentration associated with "CC(C)CNc1nc(-c2cccc3ncccc23)cn2c(-c3ccc(C(=O)NC4CC4)cc3)cnc12"
Found: 1

Lookup: What measured lowest phenotypically active concentration goes with CN1CCN(C(=O)CN[C@H]2C[C@@H]2c2ccc(OCc3ccccc3)cc2)CC1 [RN 1 dihydrochloride] ?
Found: 9

Lookup: Name the reported lowest phenotypically active concentration value associated with the compound "NC1(C(=O)N[C@@H](CCO)c2ccc(Cl)cc2)CCN(c2ncnc3[nH]ccc23)CC1"
Found: 1

Lookup: What value of measured lowest phenotypically active concentration is listed for "CCN1/C(=C/C(C)=O)Sc2ccc(O)cc21" ?
Found: 9

Lookup: What measured lowest phenotypically active concentration goes with "CC(C)(C)Nc1nc(Nc2ccc(C(N)=O)cc2)cc(N)c1C#N" ?
Found: 3

Lookup: Would you mind telling me what lowest phenotypically active concentration value was observed for "CNC(=O)c1ccccc1Sc1ccc2c(/C=C/c3ccccn3)n[nH]c2c1" ?
Found: 3
